# STUDY_SYSTEM: T1, human ceruloplasmin (human, UniProt P00450 20-1065)
# T1 construct: also called CP; purified CP
# T1 sequence: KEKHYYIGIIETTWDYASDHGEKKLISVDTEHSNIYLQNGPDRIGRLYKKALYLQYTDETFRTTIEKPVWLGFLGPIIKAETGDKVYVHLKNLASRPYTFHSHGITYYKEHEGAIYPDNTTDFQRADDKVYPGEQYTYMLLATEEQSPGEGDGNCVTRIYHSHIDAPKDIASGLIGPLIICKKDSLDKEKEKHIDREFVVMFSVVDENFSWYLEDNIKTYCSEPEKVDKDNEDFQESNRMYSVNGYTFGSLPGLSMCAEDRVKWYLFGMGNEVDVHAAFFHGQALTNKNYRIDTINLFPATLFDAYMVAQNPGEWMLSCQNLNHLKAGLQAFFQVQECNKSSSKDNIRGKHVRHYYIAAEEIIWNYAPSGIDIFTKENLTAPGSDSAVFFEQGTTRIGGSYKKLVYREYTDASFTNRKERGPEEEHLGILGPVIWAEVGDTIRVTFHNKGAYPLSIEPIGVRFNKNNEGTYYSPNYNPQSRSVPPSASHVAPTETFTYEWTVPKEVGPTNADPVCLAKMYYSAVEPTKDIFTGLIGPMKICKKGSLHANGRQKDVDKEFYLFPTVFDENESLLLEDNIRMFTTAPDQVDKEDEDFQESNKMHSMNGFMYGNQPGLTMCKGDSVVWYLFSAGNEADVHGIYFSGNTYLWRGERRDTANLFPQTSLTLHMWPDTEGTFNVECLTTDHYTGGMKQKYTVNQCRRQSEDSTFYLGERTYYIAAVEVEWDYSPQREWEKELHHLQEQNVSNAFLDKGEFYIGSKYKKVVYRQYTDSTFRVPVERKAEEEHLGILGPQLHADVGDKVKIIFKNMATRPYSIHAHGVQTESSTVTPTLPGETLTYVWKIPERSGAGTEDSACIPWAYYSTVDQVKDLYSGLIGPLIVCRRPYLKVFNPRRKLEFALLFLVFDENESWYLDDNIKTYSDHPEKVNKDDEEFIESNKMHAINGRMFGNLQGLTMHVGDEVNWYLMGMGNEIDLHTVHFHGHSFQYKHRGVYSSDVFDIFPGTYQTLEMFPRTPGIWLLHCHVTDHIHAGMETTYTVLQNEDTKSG
# ASSAY_SUMMARY: competition ELISA on coated CP, biotinylated probe; competitor: mAb E
Answer each item with its documented probe binding, % of diluent control.
Entry rule: numbers only, all in %.

# probe binding, % of diluent control lookup, item anti-CP mAb A (antibody, V domains shown, Recombinant full-length rabbit IgG from HEK-293; tested as conditioned medium, Protein A-purified and biotinylated) VH: QSLEESGGDLVKPGASLTLTCKASGFDLSRFYYMCWVRQAPGKGLEWIACIYAGRTGNTYYASWAKGRFTISKTSSTTVTLQMTSLTAADTATYFCARASGDFLAYTYAMDLWGPGTLVTVSS VL: AAVLTQTPASVSAAVGGTVTISCQASQSVDNNNYLAWYQQKPGQPPKLLIYEASKLASGVPSRFSGSGSGTQFTLTISDVQCDDATTYYCAGGYSSSADANAFGGGTEVVVKG
127

Can you share its probe binding, % of diluent control? I mean this binder: anti-CP mAb H (antibody, V domains shown, Recombinant full-length rabbit IgG from HEK-293; tested as conditioned medium, Protein A-purified and biotinylated) VH: QSVEESGGRLVTPGTPLTLTCTVSGFSLSTYAMGWVRQAPGKGLEYIGIIYGGSGTFYASWAKGRFTISKTSTTVDLKITSPTTEDTATYFCARDGDDSYFDYFNLWGQGTLVTVSS VL: AAVLTQTPASVSAAVGGTVSISCQSNENIGSNLAWYQQKPGQPPKLLIYGASTLTSGVPSRFKGSGSGTAFTLTISGVQCDDAATYYCLGGYLSTSDTTFGGGTAVVVKG
79

probe binding, % of diluent control lookup needed for anti-CP mAb G (antibody, V domains shown, Recombinant full-length rabbit IgG from HEK-293; also called mAb3) VH: QSLEESGGRLVTPGTLLTLTCTVSGFSLSSNAMSWVRQAPGEGLEWIGTISSRGSTYYANWAKGRFTISKTSTTVDLKITSPTTEDTATYFCARSSLAGYEPYYFKLWGQGTLVTVSS VL: DVVMTQTASPVSAAVGGTVTIKCQASESISSYLAWYQQKPGQPPKLLIYGASDLASGVPSRFKGSGSGTEFTLTISDLECADAATYYCQSYYGLSRNGYGNVFGGGTEVVVKG , thanks.
102

Could you share which probe binding, % of diluent control value was measured for anti-CP mAb D (antibody, V domains shown, Recombinant full-length rabbit IgG from HEK-293; tested as conditioned medium, Protein A-purified and biotinylated) VH: QEQLVESGGGLVQPEGSLTLTCKASGFDFSSYWMCWVRQAPGKRPEWIACIYGGDGTSYFAGWAKGRFTISKTSSTTVTLQMTSLTAADTATYFCARADYYVYVDGGYGHAYDLWGPGTLVTVSS VL: DIVMTQTPASVEAAVGGSVTIKCQASDDIYSYLAWYQQKPGQPPKLLIFDASSLPSGVPSRFKGSGSGTQFTLTISGVQCADAATYYCQNYYGSSSSVHAFGGGTEVVVKG ?
98

Requested field: probe binding, % of diluent control. Item: anti-CP mAb C (antibody, V domains shown, Recombinant full-length rabbit IgG from HEK-293; also called mAb2) VH: QSVEESGGRLVTPGTPLTLTCTASGFSLSRYYMSWVRQAPGKGLEWIGMIYPSSGSTWYASWVKGRFTISATATSVDLKITSPTTEDTATYFCVRDRYPGYNGDSFNLWGQGTLVTVSS VL: AQVLTQTASPVSAAVGSTVTINCQASQSVYNNNYLAWFQQKPGQPPKRLIYQASKLAIGVPSRFSGSGSGTQFTLTISDVQCDDAATYYCLGSYGCNSVDCNVFGGGTEVVVKG
99

Form field: reported probe binding, % of diluent control of anti-CP mAb B (antibody, V domains shown, Recombinant full-length rabbit IgG from HEK-293; tested as conditioned medium, Protein A-purified and biotinylated) VH: QQQLEESGGGLVKPGGTLTLTCKASGIDFSSYYYMCWVRQAPGKGLEWIACIYVIDDTIYCANWAKGRFTISKTSSTTVTLQMTSLTAADTATYFCARDGSSGIRDYFDLWGPGTLVTVSS VL: AYDMTQTPASVEVAVGGTVTIKCQASESVSTWLAWYQQKPGQPPKLLIYKASDLASGVPSRFKGSGSGTEFTLTISGVECADAATYYCQQGYTYNNVENVFGGGTEVVVKG
87

Attribution: patent US20240044920A1
